meta.source: BigSolDB 2.1

# experimental context: in methanol, 303.15 K
attribute measured: solubility (mole fraction)
The response must contain the number and no unit.

Tell me its solubility (mole fraction) given O=C(O)c1ccc(O)c(O)c1 as the entry.
0.0654

====

# experimental context: in ethanol, 293.15 K
attribute measured: solubility (mole fraction)
// no unit, no text: just the number

Specify solubility (mole fraction) for O=C(O)c1ccc(O)c(O)c1 and stop.
0.0302

====

# experimental context: in ethyl acetate, 313.15 K
attribute measured: solubility (mole fraction)
Enter the number alone.

Output measured solubility (mole fraction) for this item: O=C(O)c1ccc(O)c(O)c1
0.0179

====

# experimental context: in methyl acetate, 308.15 K
attribute measured: solubility (mole fraction)
Note: the reply should be a number with no unit written.

Item O=C(O)c1ccc(O)c(O)c1 : provide solubility (mole fraction)
0.0167
